System: XIAP
Experiment: XIAP depletion in PC-3 cells by Western blot / immunoblotting
Format: cell-based, human
Settings: PC-3 cells, chelator 50 μM, 4 hours; FIG. 3/4

{"columns": ["Chemical structure", "XIAP depletion (Western blot)"],
 "data": [
  ["N#Cc1ccc(S(=O)(=O)Nc2cccc3cccnc23)cc1", "completely depleted XIAP"],
  ["O=S(=O)(Nc1cccc2cccnc12)c1ccc(F)c(Cl)c1", "completely depleted XIAP"]
]}

Source of measurements: patent US9320736B2
